# ASSAY TARGET: T1, TGFβ3 (R&D Systems) (Homo sapiens (Human), UniProt P10600 301-412, Active TGFβ3 is a disulfide-linked homodimer of this chain; one copy is given.)
# T1 sequence: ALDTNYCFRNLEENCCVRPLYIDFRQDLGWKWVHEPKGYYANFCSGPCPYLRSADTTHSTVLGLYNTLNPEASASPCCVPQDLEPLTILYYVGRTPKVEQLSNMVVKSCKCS
# PROTOCOL SUMMARY: cell-based or functional assay

- BINDER: "affinity matured HcLb 258 (antibody, V domains shown, full IgG; constant regions not restated) VH: EVQLVQSGAEVKKPGASVKVSCKTSGYTFMKYWMNWVRQAPGAGLDWMGQIFPAWGSTNYNEMFEGRVTLTADTSTSTAYMELSSLRAGDIAVYYCARGYGNYALDAMDYWGQGTLVTVSS VL: DIVMTQTPPSLSVSPRETASISCRASESVDSYGNSFMHWYLQKPGQSPQLLIYLASNLESGVSDRFSGSGSGTDFTLRISRVEANDTGVYYCQQNNEDPLTFGQ"
  pSmad-3, IC50 / nM: 1.09
- BINDER: "affinity matured HcLb 189 (antibody, V domains shown, full IgG; also called canHcLb/S55W/D100Y + canHcLb/237ND/242TS) VH: EVQLVQSGAEVKKPGASVKVSCKTSGYTFITYWMNWVRQAPGAGLDWMGQIFPAWGSTNYNEMFEGRVTLTADTSTSTAYMELSSLRAGDIAVYYCARGYGNYALDAMDYWGQGTLVTVSS VL: DIVMTQTPPSLSVSPRETASISCRASESVDSYGNSFMHWYLQKPGQSPQLLIYLASNLESGVSDRFSGSGSGTDFTLRISRVEANDTGVYYCQQNDEDPLSFGQGTK"
  pSmad-3, IC50 / nM: 2.13
- BINDER: "affinity matured HcLb 257 (antibody, V domains shown, full IgG; also called canHcLb/55SW/100DY/30IM/31TK + canHcLb/237ND/242TS) VH: EVQLVQSGAEVKKPGASVKVSCKTSGYTFMKYWMNWVRQAPGAGLDWMGQIFPAWGSTNYNEMFEGRVTLTADTSTSTAYMELSSLRAGDIAVYYCARGYGNYALDAMDYWGQGTLVTVSS VL: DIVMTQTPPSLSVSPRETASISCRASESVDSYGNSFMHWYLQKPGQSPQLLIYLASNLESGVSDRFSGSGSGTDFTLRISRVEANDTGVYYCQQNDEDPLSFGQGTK"
  pSmad-3, IC50 / nM: 1.6
- BINDER: "affinity matured HcLb 187 (antibody, V domains shown) VH: EVQLVQSGAEVKKPGASVKVSCKTSGYTFITYWMNWVRQAPGAGLDWMGQIFPGSGSTNYNEMFEGRVTLTADTSTSTAYMELSSLRAGDIAVYYCARGYGNYALDAMDYWGQGTLVTVSS VL: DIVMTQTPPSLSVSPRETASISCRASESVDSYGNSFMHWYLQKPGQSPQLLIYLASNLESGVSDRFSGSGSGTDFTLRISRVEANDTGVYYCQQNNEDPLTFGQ"
  pSmad-3, IC50 / nM: 8.61
- BINDER: "affinity matured HcLb 262 (antibody, V domains shown, full IgG; constant regions not restated) VH: EVQLVQSGAEVKKPGASVKVSCKTSGYTFIKYWMNWVRQAPGAGLDWMGQIFPAWGSTNYNEMFEGRVTLTADTSTSTAYMELSSLRAGDIAVYYCARGYGNYALDAMDYWGQGTLVTVSS VL: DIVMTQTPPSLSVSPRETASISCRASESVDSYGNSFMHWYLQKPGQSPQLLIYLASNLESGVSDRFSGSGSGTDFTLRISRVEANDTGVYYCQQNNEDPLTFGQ"
  pSmad-3, IC50 / nM: 1.37
